B1: VH:VL chains; a variant is named by its letters at X, in order (parent)
chain 1: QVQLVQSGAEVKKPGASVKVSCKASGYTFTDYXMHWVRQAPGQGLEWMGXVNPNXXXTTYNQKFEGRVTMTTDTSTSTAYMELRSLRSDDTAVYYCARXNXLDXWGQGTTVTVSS
chain 2: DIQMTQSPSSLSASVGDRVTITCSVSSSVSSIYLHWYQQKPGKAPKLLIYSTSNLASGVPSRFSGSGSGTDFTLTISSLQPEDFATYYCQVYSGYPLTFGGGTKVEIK

variants of: B1; experiment: yeast display scFab, FACS + sequencing
measured.attribute: non-specific binding call

These recorded examples may help you get a feel for the data.
YRGGGSVF    binds
YKRGGSGD    binds
DRAGDAVD    no binding
DGGKNSVD    no binding
DTTKSDGV    no binding
SKAGDAWY    binds

In: // query non-specific binding call value for entry YKGKSAWV
Out: binds

In: Please look up its non-specific binding call: VRGKGAAD
Out: binds

In: Can you share its non-specific binding call? I mean this variant: VRGRDDVV
Out: no binding

In: So what's the measured non-specific binding call for this one? YTRGADWY
Out: no binding

In: Which non-specific binding call value is on record for FAEGASSS ?
Out: no binding

In: Quick one: non-specific binding call of ARGRGAAS ?
Out: binds

In: For the variant YRRGGSLS , what non-specific binding call is on record?
Out: binds

In: What does the data say about its non-specific binding call? Entry: FRAGGSLY
Out: binds

In: Return reported non-specific binding call; argument: DARETFLD
Out: no binding

In: Which non-specific binding call value belongs to YAEGASSF ?
Out: no binding

In: What value of measured non-specific binding call is listed for VAGTGDWV ?
Out: no binding

In: Looking for the measured non-specific binding call of YAGRGDWF , can you help?
Out: no binding

In: Look at this variant and give its reported non-specific binding call. VTGTGAAD
Out: no binding

In: Look up non-specific binding call: YRARSSAD
Out: binds

In: I have this variant here, DREEGAGA , and I need its recorded non-specific binding call.
Out: no binding

In: non-specific binding call lookup needed for DRAGGAGD , thanks.
Out: no binding
